System: peripheral blood mononuclear cells (PBMC), T cells
experimental-protocol: ELISpot assay, gamma-interferon release (SFC) after stimulation with a-synuclein epitope pools
Format: cell-based, human
test-settings: Patients Summary; PD patients; of donors tested (peptide)
Consider the following substances and their measured IFNg Peptide + (donors positive to the peptide) readings.
quantity-kind: IFNg Peptide + (donors positive to the peptide)

{"substance": "3521.0053 (KAKEGVVAAA; listed as Homo sapiens)", "tested-on": "peripheral blood mononuclear cells (PBMC), T cells", "quantitative-readout": 0}
{"substance": "3521.0021 (PGKTKEGVL; listed as Homo sapiens)", "tested-on": "peripheral blood mononuclear cells (PBMC), T cells", "quantitative-readout": 1}
{"substance": "3521.0015 (KTKEQVTNV; listed as Homo sapiens)", "tested-on": "peripheral blood mononuclear cells (PBMC), T cells", "quantitative-readout": 0}
{"substance": "3521.0009 (LYVGSKTKK; listed as Homo sapiens)", "tested-on": "peripheral blood mononuclear cells (PBMC), T cells", "quantitative-readout": 2}
{"substance": "3521.0048 (EQVTNVGGAV; listed as Homo sapiens)", "tested-on": "peripheral blood mononuclear cells (PBMC), T cells", "quantitative-readout": 0}
{"substance": "3521.0086 (ATVAEKTKEQVTNVG; listed as Homo sapiens)", "tested-on": "peripheral blood mononuclear cells (PBMC), T cells", "quantitative-readout": 0}
{"substance": "3521.0061 (AATGFVKKDQ; listed as Homo sapiens)", "tested-on": "peripheral blood mononuclear cells (PBMC), T cells", "quantitative-readout": 0}
{"substance": "3521.0008 (IAAATGFVK; listed as Homo sapiens)", "tested-on": "peripheral blood mononuclear cells (PBMC), T cells", "quantitative-readout": 0}
{"substance": "3521.0007 (AAATGFVKK; listed as Homo sapiens)", "tested-on": "peripheral blood mononuclear cells (PBMC), T cells", "quantitative-readout": 0}
{"substance": "3521.0005 (AVVTGVTAV; listed as Homo sapiens)", "tested-on": "peripheral blood mononuclear cells (PBMC), T cells", "quantitative-readout": 0}
{"substance": "3521.0035 (SIAAATGFVK; listed as Homo sapiens)", "tested-on": "peripheral blood mononuclear cells (PBMC), T cells", "quantitative-readout": 1}
{"substance": "3521.0067 (KTKEGVVHG; listed as Homo sapiens)", "tested-on": "peripheral blood mononuclear cells (PBMC), T cells", "quantitative-readout": 0}
{"substance": "3521.003 (GSIAAATGFV; listed as Homo sapiens)", "tested-on": "peripheral blood mononuclear cells (PBMC), T cells", "quantitative-readout": 0}

* * *

System: peripheral blood mononuclear cells (PBMC), T cells
experimental-protocol: ELISpot assay, IL-5 release (SFC) after stimulation with a-synuclein epitope pools
Assay type: cell-based, human
test-settings: Patients Summary; PD patients; single peptide

{"substance": "3521.0037 (LYVGSKTKEG; listed as Homo sapiens)", "display-unit": "%", "IL-g Response Frequency": 17}
{"substance": "3521.0079 (KGVVHGVATVAEKTK; listed as Homo sapiens)", "display-unit": "%", "IL-g Response Frequency": 0}
{"substance": "3521.0059 (AEAAGKTKEG; listed as Homo sapiens)", "display-unit": "%", "IL-g Response Frequency": 13}
{"substance": "3521.0068 (GVAEAPGKTK; listed as Homo sapiens)", "display-unit": "%", "IL-g Response Frequency": 0}

* * *

System: peripheral blood mononuclear cells (PBMC), T cells
experimental-protocol: ELISpot assay, IL-5 release (SFC) after stimulation with a-synuclein epitope pools
Type: cell-based, human
test-settings: Patients Summary; PD patients; of donors tested (peptide)
Consider the following substances and their measured IL-g Peptide + (donors positive to the peptide) readings.
quantity-kind: IL-g Peptide + (donors positive to the peptide)

{"substance": "3521.0051 (EEGAPQEGIL; listed as Homo sapiens)", "tested-on": "peripheral blood mononuclear cells (PBMC), T cells", "quantitative-readout": 0}
{"substance": "3521.0049 (APQEGILEDM; listed as Homo sapiens)", "tested-on": "peripheral blood mononuclear cells (PBMC), T cells", "quantitative-readout": 0}
{"substance": "3521.0024 (DPDNEAYEM; listed as Homo sapiens)", "tested-on": "peripheral blood mononuclear cells (PBMC), T cells", "quantitative-readout": 0}
{"substance": "3521.0008 (IAAATGFVK; listed as Homo sapiens)", "tested-on": "peripheral blood mononuclear cells (PBMC), T cells", "quantitative-readout": 1}
{"substance": "3521.0023 (YEMPSEEGY; listed as Homo sapiens)", "tested-on": "peripheral blood mononuclear cells (PBMC), T cells", "quantitative-readout": 0}
{"substance": "3521.0073 (TTVAEKTKEQVTNVG; listed as Homo sapiens)", "tested-on": "peripheral blood mononuclear cells (PBMC), T cells", "quantitative-readout": 0}
{"substance": "3521.002 (AGKTKEGVL; listed as Homo sapiens)", "tested-on": "peripheral blood mononuclear cells (PBMC), T cells", "quantitative-readout": 1}
{"substance": "3521.0026 (MPSEEGYQD; listed as Homo sapiens)", "tested-on": "peripheral blood mononuclear cells (PBMC), T cells", "quantitative-readout": 0}
{"substance": "3521.0053 (KAKEGVVAAA; listed as Homo sapiens)", "tested-on": "peripheral blood mononuclear cells (PBMC), T cells", "quantitative-readout": 0}
{"substance": "3521.0056 (YEMPSEEGYQ; listed as Homo sapiens)", "tested-on": "peripheral blood mononuclear cells (PBMC), T cells", "quantitative-readout": 0}
{"substance": "3521.0046 (FMKGLSKAKE; listed as Homo sapiens)", "tested-on": "peripheral blood mononuclear cells (PBMC), T cells", "quantitative-readout": 0}

* * *

System: peripheral blood mononuclear cells (PBMC), T cells
experimental-protocol: ELISpot assay, IL-5 release (SFC) after stimulation with a-synuclein epitope pools
Type: cell-based, human
test-settings: single peptide; second 'Pool Stimulated' section (from r296), 12 donors tested

{"substance": "3521.0002 (PSEEGYQDY; listed as Homo sapiens)", "IL-g Total SFC, SFC": 0}
{"substance": "3521.0085 (EGVVHGVATVAEKTK; listed as Homo sapiens)", "IL-g Total SFC, SFC": 80}
{"substance": "3521.0056 (YEMPSEEGYQ; listed as Homo sapiens)", "IL-g Total SFC, SFC": 89}
{"substance": "3521.006 (VATVAEKTKE; listed as Homo sapiens)", "IL-g Total SFC, SFC": 0}
{"substance": "3521.0004 (KTKEGVLYV; listed as Homo sapiens)", "IL-g Total SFC, SFC": 0}
{"substance": "3521.0077 (KTKEGVLYVGSKTKK; listed as Homo sapiens)", "IL-g Total SFC, SFC": 1814}
